- Test system: Yap1 mRNA
- Protocol notes: Dose-dependent inhibition of human Yap1 in SNU-449 cells (Example 9, RTS36584)
- Type: cell-based
- Test conditions: 31.3 nM, free uptake, approximately 48 hours
Strand notation (5' to 3'): a small letter for the sugar, then the base; units joined by * are phosphorothioate-linked, units joined directly phosphodiester-linked; [ ] holds rarer units or linkages, { } end groups; capitals alone tell only the bases. e = 2'-O-(2-methoxyethyl) (MOE); k = constrained ethyl (cEt); [5mC] = 5-methylcytosine; d = 2'-deoxy (DNA)
Measurement type: % UTC (Yap1 mRNA)

>>> val("1198502 (kA*kG*dA*dT*dT*dT*dA*dG*dG*dA*dT*eG*k[5mC]*eA*kT*eG; antisense) [compound 1198502]")
"76 % UTC"
>>> val("1198605 (GTAATATTGCAATCTG; modified gapmer, further chemistry not given here) [compound 1198605]")
"57 % UTC"
>>> val("1198613 (kA*kA*kA*dG*dT*dG*dT*dA*dT*dG*dT*d[5mC]*kA*kG*kA*eA; antisense) [compound 1198613]")
"80 % UTC"

Origin of the recorded values: patent US11214803B2
